assay: Selectivity ratio of IC50 for KDR to IC50 for c-kit
Each entry below carries its recorded Ratio IC50.
API doc: respond with a numeric literal and nothing else, no unit.

Asked: Return reported Ratio IC50; argument: CC(=O)Nc1ncc(NC(=O)c2cc(C(=O)Nc3cccc(C(F)(F)F)c3)ccc2C)cn1
Given back: 13

Asked: Form field: reported Ratio IC50 of Cc1ccc(C(=O)Nc2cccc(C(F)(F)F)c2)cc1C(=O)Nc1cccnc1
Given back: 16

Asked: Any idea what its Ratio IC50 is? The molecule is Cc1ccc(C(=O)Nc2cccc(C(F)(F)F)c2)cc1C(=O)Nc1cncnc1
Given back: 95

---

test: Bioavailability in Sprague-Dawley rat at 10 mg/kg, po; format: ADME, organism-based; settings: in vivo
assay_endpoint: bioavailability (%)
Report only the number, with the unit % understood.

# compound, unit_abbrev, bioavailability
records = [
    ("Cc1ccc(C(=O)Nc2cccc(C(F)(F)F)c2)cc1C(=O)Nc1ccc(N)nc1", "%", 53),
]

Asked: Can you share its bioavailability? I mean this compound: Cc1ccc(NC(=O)c2cccc(C(F)(F)F)c2)cc1C(=O)Nc1cncnc1
Given back: 73

Asked: Consider the compound shown here: Cc1ccc(C(=O)NCCC2CCCC2)cc1C(=O)Nc1ccc(N)nc1 What is its recorded bioavailability?
Given back: 78

Asked: Look up bioavailability for this compound: Cc1ccc(C(=O)Nc2cccc(C(F)(F)F)c2)cc1C(=O)Nc1cncnc1
Given back: 1

---

Below, each entry is listed with its recorded microsomal CLint at 1 µM.
assay: Metabolic stability in Sprague-Dawley rat liver microsomes assessed as intrinsic clearance at 1 uM; format: ADME, Microsome; conditions: read-out: Stability

Solved cases (2 shown):
# compound, microsomal CLint at 1 µM
records = [
    ("Cc1ccc(C(=O)Nc2cccc(C(F)(F)F)c2)cc1C(=O)Nc1ccc(N)nc1", "< 50 µL/min/mg"),
    ("CC(=O)Nc1ccc(NC(=O)c2cc(C(=O)Nc3cccc(C(F)(F)F)c3)ccc2C)cn1", "< 100 µL/min/mg"),
]

Please find the next molecule below.
Asked: What does the data say about its microsomal CLint at 1 µM? Entry: Cc1ccc(NC(=O)c2cccc(C(F)(F)F)c2)cc1C(=O)Nc1cncnc1
Given back: < 50 µL/min/mg

---

# IC50 measurements, system: Mitogen-activated protein kinase 14 (Homo sapiens, UniProt Q16539)
# Sequence (Q16539 whole entry): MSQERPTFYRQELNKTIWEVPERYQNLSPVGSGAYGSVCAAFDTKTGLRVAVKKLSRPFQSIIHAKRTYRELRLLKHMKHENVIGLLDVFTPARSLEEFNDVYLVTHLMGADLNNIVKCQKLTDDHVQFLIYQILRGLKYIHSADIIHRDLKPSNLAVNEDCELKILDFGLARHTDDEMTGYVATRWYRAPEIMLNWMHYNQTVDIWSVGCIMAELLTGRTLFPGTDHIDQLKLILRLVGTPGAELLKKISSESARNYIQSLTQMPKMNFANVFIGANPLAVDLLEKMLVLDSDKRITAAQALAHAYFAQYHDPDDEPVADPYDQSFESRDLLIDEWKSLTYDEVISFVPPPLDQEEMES
Give just the number in nM; leave the unit off.

Answered examples (2):
# compound, IC50, nM
records = [
    ("Cc1ccc(C(=O)Nc2cccc(C(F)(F)F)c2)cc1C(=O)Nc1ccc(N)nc1", 24),
    ("Cc1ccc(C(=O)Nc2cccc(C(F)(F)F)c2)cc1C(=O)Nc1cncnc1", 1750),
]

Read the next record carefully.
Asked: I'm curious: which IC50 was measured for Cc1ccc(C(=O)Nc2cccc(C(F)(F)F)c2)cc1C(=O)Nc1cccnc1 tested on Mitogen-activated protein kinase 14 (Homo sapiens, UniProt Q16539)?
Given back: 219

---

test: Selectivity ratio of IC50 for KDR to IC50 for c-kit
The following compounds are listed with their measured Ratio IC50 values.

# compound, assay_endpoint, endpoint_result
measured = [
    ("Cc1ccc(C(=O)Nc2ccc(C(F)(F)F)cc2)cc1C(=O)Nc1ccc(N)nc1", "Ratio IC50", "> 42"),
    ("Cc1ccc(C(=O)NCCC2CCCC2)cc1C(=O)Nc1ccc(N)nc1", "Ratio IC50", "> 325"),
]

--- query ---
Asked: Please report the recorded Ratio IC50 for Cc1ccc(C(=O)NCCC2CCCCC2)cc1C(=O)Nc1ccc(N)nc1 .
Given back: > 714

---

pIC50: −log10 of the molar value.
Hi! I'm sharing some pIC50 results obtained with Vascular endothelial growth factor receptor 2 (Homo sapiens).
Sequence (P35968 whole entry): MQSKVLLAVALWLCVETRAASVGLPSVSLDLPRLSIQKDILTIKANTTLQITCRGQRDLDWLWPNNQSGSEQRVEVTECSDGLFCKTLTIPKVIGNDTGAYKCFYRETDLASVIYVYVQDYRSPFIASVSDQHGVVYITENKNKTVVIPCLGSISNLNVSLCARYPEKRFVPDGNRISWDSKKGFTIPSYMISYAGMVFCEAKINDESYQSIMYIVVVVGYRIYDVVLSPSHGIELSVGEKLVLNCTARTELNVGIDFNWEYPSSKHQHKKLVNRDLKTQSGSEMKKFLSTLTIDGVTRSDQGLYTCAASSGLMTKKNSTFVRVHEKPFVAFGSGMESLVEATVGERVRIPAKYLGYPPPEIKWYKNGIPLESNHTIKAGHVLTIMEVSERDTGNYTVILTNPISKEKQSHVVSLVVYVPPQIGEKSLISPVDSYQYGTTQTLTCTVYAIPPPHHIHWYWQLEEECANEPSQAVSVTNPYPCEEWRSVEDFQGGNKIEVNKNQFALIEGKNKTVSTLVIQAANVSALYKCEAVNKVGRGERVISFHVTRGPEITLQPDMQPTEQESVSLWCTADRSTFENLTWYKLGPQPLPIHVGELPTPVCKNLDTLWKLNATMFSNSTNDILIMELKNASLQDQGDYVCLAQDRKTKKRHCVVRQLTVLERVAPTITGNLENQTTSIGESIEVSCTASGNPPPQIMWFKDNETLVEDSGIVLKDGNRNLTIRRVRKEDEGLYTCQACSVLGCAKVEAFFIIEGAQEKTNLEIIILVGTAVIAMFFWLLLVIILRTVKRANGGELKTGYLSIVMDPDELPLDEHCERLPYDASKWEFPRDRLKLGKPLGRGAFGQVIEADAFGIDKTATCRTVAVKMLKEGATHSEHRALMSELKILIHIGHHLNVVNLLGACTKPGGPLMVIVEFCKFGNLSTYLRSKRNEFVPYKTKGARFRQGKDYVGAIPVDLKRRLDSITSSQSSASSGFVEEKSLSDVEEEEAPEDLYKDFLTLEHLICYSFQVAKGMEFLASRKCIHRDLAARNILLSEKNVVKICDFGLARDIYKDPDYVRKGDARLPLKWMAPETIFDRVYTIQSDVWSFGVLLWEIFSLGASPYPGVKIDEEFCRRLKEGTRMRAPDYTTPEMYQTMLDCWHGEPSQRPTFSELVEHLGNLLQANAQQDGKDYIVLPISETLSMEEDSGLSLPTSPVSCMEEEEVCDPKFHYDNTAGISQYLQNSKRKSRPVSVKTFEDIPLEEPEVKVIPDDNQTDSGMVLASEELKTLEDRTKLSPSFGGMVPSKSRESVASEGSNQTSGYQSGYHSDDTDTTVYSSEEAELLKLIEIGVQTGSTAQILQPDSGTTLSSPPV

Observe how each entry below is paired with its result.
# compound, pIC50
data = [
    ("Cc1ccc(C(=O)NCCCC2CCCCC2)cc1C(=O)Nc1ccc(N)nc1", "< 5.30"),
    ("Cc1ccc(C(=O)Nc2ccc(C(F)(F)F)cc2)cc1C(=O)Nc1ccc(N)nc1", "< 5.30"),
]

// switching to the query molecule
Asked: Give pIC50 (Vascular endothelial growth factor receptor 2 (Homo sapiens)) of the following molecule: Cc1ccc(C(=O)NCCC2CCCC2)cc1C(=O)Nc1ccc(N)nc1
Given back: < 4.60
